# pIC50 listing for each entry below
Target: VLA4 (Homo sapiens, UniProt P05556+P13612)
Construct: endogenous in cells; host or cells: Ramos cells
Sequence (P13612 34-1032): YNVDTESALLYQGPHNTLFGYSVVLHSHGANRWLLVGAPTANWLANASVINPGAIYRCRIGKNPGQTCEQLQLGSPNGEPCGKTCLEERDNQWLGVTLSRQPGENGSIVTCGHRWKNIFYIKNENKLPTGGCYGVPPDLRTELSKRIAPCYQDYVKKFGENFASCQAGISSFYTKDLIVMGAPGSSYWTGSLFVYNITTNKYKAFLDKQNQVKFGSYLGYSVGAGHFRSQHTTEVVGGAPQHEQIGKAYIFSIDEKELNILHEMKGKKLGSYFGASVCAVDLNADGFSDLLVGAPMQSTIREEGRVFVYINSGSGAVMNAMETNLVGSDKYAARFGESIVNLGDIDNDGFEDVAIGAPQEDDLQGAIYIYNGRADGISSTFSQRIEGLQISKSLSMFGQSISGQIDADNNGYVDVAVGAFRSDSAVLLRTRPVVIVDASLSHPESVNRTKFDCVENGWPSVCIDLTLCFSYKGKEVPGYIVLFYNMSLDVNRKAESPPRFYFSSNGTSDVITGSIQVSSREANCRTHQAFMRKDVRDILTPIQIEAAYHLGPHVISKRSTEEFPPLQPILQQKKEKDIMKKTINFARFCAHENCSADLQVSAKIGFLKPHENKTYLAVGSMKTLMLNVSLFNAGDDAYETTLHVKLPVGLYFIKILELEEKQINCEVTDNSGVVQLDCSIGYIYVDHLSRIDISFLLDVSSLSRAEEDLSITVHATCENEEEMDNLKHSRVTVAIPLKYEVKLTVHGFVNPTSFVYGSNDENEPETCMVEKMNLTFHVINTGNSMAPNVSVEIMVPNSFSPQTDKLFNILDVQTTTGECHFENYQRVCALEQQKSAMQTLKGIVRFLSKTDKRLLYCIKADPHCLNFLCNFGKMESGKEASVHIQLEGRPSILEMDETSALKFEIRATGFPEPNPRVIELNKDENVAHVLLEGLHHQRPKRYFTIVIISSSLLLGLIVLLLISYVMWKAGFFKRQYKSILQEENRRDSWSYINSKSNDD
Sequence (P05556 21-798): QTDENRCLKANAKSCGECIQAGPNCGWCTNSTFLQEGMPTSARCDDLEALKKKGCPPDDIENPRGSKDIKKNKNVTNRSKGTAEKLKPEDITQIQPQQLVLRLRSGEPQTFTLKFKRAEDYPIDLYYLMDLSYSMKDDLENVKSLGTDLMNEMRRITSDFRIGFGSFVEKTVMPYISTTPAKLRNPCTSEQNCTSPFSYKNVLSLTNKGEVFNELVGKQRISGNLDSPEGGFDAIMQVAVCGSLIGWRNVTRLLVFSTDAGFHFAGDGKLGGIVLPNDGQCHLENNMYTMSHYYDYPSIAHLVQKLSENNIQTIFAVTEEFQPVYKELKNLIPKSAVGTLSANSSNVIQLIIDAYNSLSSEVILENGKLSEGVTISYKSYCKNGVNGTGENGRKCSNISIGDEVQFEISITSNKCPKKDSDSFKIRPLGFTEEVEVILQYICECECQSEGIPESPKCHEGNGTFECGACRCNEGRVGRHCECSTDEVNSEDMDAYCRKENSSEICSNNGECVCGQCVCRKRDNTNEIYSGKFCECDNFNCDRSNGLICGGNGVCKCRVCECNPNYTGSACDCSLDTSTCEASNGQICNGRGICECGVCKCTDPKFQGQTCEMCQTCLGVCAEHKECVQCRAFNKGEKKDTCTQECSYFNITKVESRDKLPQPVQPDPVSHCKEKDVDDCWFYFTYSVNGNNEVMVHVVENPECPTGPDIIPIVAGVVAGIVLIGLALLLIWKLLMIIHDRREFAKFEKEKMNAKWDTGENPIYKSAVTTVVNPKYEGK
Assay: Inhibition of VLA4-dependent adhesion to BSA-CS1
Format: cell-based
Conditions: binding of BCECF-labelled Ramos cells to BSA-CS1 coated wells, 2 mM MnCl2; read-out: IC50
pIC50: −log10 of the molar value. Numbered stars: 1 amine (or outer) side, 2 acyl side, 3 side chain; on linkers, the order of the positions; unused ones are H or OH. Square brackets hold non-standard residues; d marks the D form. Peptide text beside a SMILES is read from it. * marks the point of attachment. X1 = O=C(Cc1ccc(N[*:1])cc1)[*:2]; CO = O=C([*:1])[*:2]; NHPh = c1ccc(N*)cc1; X3 = Cc1cccc(N*)n1

These recorded examples may help you get a feel for the data.
compound	pIC50
Cc1ccccc1NC(=O)Nc1ccc(CC(=O)N[C@@H](CCC(N)=O)C(=O)N[C@@H](CC(=O)O)C(=O)N[C@@H](CCC(=O)O)C(N)=O)cc1	> 7.30
CSCC[C@H](NC(=O)Cc1ccc(NC(=O)Nc2ccccc2C)cc1)C(=O)N[C@@H](CC(=O)O)C(=O)N[C@H](CO)C(N)=O	> 7.30
CC(C)C[C@H](NC(=O)N1c2ccccc2CCc2ccccc21)C(=O)N[C@@H](CC(=O)O)C(=O)N[C@H](C(=O)O)C(C)C	< 5.00
Cc1ccccc1NC(=O)Nc1ccc(CC(=O)N2CCC[C@H]2C(=O)N[C@@H](CCC(=O)O)C(=O)O)cc1	5.00 to 7.30
Cc1cccc(NC(=O)Nc2ccc(CC(=O)N[C@@H](CC(C)C)C(=O)N[C@@H](CC(=O)O)C(=O)N[C@H](C(=O)N3CCC[C@H]3C(=O)O)C(C)C)cc2)n1 [Compound 346] ({X3-CO}-[X1]LDVP-OH)	> 7.30

# context switch: different compound, same pIC50
Item: CC(C)C[C@H](NC(=O)Cc1ccc(NC(=O)Nc2ccccc2)cc1)C(=O)N[C@H](CC(=O)O)C(=O)N[C@H](C(=O)N1CCC[C@H]1C(N)=O)C(C)C [Compound 210] ({NHPh-CO}-[X1]L[dD]VP-NH2) | pIC50: 5.00 to 7.30
